Known growth, % of control at 10 µM of a selection of molecules
System: Hs-578T
Test: Cytotoxicity against human HS578T cells at 10 uM after 48 hrs by MTT assay
Format: functional
Details: values are per cent of control

[
  {
    "smiles-entry": "CCN(CC)CCC(=O)Nc1ccc2c(c1)C(=O)c1cc(NC(=O)CCN(CC)CC)ccc1C2=O",
    "growth, % of control at 10 µM, %": -23.8
  },
  {
    "smiles-entry": "CC(=O)Nc1ccc2c(c1)C(=O)c1cc(NC(C)=O)ccc1C2=O",
    "growth, % of control at 10 µM, %": 133
  },
  {
    "smiles-entry": "CN(C)CC(=O)Nc1ccc2c(c1)C(=O)c1cc(NC(=O)CN(C)C)ccc1C2=O",
    "growth, % of control at 10 µM, %": -6.11
  },
  {
    "smiles-entry": "O=C1c2ccc(NC(=O)C3CC3)cc2C(=O)c2cc(NC(=O)C3CC3)ccc21",
    "growth, % of control at 10 µM, %": 119
  },
  {
    "smiles-entry": "O=C(CCN1CCCC1)Nc1ccc2c(c1)C(=O)c1cc(NC(=O)CCN3CCCC3)ccc1C2=O",
    "growth, % of control at 10 µM, %": 5.26
  }
]

###

Target: Telomerase reverse transcriptase (Homo sapiens)
Sequence (O14746 whole entry): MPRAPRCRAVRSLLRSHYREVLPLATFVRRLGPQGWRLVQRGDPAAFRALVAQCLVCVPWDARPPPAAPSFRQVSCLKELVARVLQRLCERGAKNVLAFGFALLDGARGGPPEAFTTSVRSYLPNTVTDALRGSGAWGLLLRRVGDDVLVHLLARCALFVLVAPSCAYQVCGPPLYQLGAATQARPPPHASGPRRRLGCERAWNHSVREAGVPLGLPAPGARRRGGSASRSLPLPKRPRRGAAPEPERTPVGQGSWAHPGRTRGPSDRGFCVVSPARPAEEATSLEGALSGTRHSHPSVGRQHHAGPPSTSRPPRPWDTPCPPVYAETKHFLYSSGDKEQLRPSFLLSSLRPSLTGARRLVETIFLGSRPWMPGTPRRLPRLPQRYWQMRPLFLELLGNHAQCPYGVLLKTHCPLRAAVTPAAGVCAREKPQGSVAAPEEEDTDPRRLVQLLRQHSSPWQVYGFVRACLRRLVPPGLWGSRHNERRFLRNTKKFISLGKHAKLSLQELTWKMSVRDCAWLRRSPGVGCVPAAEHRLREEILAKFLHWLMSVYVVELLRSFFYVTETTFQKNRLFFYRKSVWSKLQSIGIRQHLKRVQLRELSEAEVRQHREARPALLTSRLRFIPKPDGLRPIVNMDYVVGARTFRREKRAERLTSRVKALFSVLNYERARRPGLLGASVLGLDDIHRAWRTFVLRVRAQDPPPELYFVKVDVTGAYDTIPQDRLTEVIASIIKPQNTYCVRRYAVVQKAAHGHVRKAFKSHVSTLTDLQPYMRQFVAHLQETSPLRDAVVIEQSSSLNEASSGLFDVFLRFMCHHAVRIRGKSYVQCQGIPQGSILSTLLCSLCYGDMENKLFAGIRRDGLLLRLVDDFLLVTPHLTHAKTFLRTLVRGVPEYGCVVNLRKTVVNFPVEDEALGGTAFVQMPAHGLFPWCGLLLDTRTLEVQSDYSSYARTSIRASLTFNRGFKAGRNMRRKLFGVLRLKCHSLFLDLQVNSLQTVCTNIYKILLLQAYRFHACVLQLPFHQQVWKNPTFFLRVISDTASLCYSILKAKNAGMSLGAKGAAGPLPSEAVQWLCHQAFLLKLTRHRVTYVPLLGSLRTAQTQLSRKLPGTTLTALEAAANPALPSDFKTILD
Experiment: Effect on human TERT expressed in BJ1 cells at 1 uM after 24 hrs by SEAP assay realtive to control
Conditions: BJ
Documented residual activity across a set of compounds

[
  {
    "smiles-entry": "CN(C)CCC(=O)Nc1ccc2c(c1)C(=O)c1cc(NC(=O)CCN(C)C)ccc1C2=O",
    "residual activity (%)": 86
  },
  {
    "smiles-entry": "CC(C)CNCC(=O)Nc1ccc2c(c1)C(=O)c1cc(NC(=O)CNCC(C)C)ccc1C2=O",
    "residual activity (%)": 83
  },
  {
    "smiles-entry": "O=C(CCCCl)Nc1ccc2c(c1)C(=O)c1cc(NC(=O)CCCCl)ccc1C2=O",
    "residual activity (%)": 13
  },
  {
    "smiles-entry": "O=C1c2ccc([N+](=O)[O-])cc2C(=O)c2cc([N+](=O)[O-])ccc21",
    "residual activity (%)": 55
  },
  {
    "smiles-entry": "O=C(Cc1ccccc1)Nc1ccc2c(c1)C(=O)c1cc(NC(=O)Cc3ccccc3)ccc1C2=O",
    "residual activity (%)": 85
  },
  {
    "smiles-entry": "CN(C)CC(=O)Nc1ccc2c(c1)C(=O)c1cc(NC(=O)CN(C)C)ccc1C2=O",
    "residual activity (%)": 96
  },
  {
    "smiles-entry": "CC(C)NCC(=O)Nc1ccc2c(c1)C(=O)c1cc(NC(=O)CNC(C)C)ccc1C2=O",
    "residual activity (%)": 79
  },
  {
    "smiles-entry": "CCN(CC)CCC(=O)Nc1ccc2c(c1)C(=O)c1cc(NC(=O)CCN(CC)CC)ccc1C2=O",
    "residual activity (%)": 84
  },
  {
    "smiles-entry": "O=C(CN1CCCCC1)Nc1ccc2c(c1)C(=O)c1cc(NC(=O)CN3CCCCC3)ccc1C2=O",
    "residual activity (%)": 118
  },
  {
    "smiles-entry": "CCNCC(=O)Nc1ccc2c(c1)C(=O)c1cc(NC(=O)CNCC)ccc1C2=O",
    "residual activity (%)": 90
  },
  {
    "smiles-entry": "CN1CCN(CC(=O)Nc2ccc3c(c2)C(=O)c2cc(NC(=O)CN4CCN(C)CC4)ccc2C3=O)CC1",
    "residual activity (%)": 61
  },
  {
    "smiles-entry": "O=C(CCc1ccccc1)Nc1ccc2c(c1)C(=O)c1cc(NC(=O)CCc3ccccc3)ccc1C2=O",
    "residual activity (%)": 74
  },
  {
    "smiles-entry": "CCN(CC)CC(=O)Nc1ccc2c(c1)C(=O)c1cc(NC(=O)CN(CC)CC)ccc1C2=O",
    "residual activity (%)": 26
  },
  {
    "smiles-entry": "CCC(=O)Nc1ccc2c(c1)C(=O)c1cc(NC(=O)CC)ccc1C2=O",
    "residual activity (%)": 78
  },
  {
    "smiles-entry": "O=C1c2ccc(NC(=O)C3CCCC3)cc2C(=O)c2cc(NC(=O)C3CCCC3)ccc21",
    "residual activity (%)": 137
  },
  {
    "smiles-entry": "CCCCNCCC(=O)Nc1ccc2c(c1)C(=O)c1cc(NC(=O)CCNCCCC)ccc1C2=O",
    "residual activity (%)": 88
  },
  {
    "smiles-entry": "CC(=O)Nc1ccc2c(c1)C(=O)c1cc(NC(C)=O)ccc1C2=O",
    "residual activity (%)": 123
  },
  {
    "smiles-entry": "O=C1c2ccc(NC(=O)C3CCCCC3)cc2C(=O)c2cc(NC(=O)C3CCCCC3)ccc21",
    "residual activity (%)": 14
  },
  {
    "smiles-entry": "CCCCNCC(=O)Nc1ccc2c(c1)C(=O)c1cc(NC(=O)CNCCCC)ccc1C2=O",
    "residual activity (%)": 27
  }
]

Value source: ChEMBL document CHEMBL1155063
